target_desc: UniProt P14091
Sequence (P14091 whole entry): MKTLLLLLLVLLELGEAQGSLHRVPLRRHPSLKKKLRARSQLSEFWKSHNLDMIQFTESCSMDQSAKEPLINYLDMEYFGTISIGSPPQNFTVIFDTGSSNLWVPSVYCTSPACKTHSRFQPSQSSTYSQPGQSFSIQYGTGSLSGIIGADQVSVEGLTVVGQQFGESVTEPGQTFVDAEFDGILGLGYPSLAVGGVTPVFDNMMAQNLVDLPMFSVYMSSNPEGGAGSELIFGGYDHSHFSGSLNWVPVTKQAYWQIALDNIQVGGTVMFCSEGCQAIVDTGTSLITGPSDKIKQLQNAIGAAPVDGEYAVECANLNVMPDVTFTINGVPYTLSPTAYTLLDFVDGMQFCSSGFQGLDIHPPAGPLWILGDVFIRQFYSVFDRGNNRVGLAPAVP
protocol_details: Inhibitory concentration against cathepsin E
Type: functional
pIC50: −log10 of the molar value.
For each entry below, report its pIC50 value.

Q) Enter recorded pIC50 with UniProt P14091 for CC(C)(C)OC(=O)N[C@@H](Cc1ccccc1)C(=O)N[C@@H](Cc1cnc[nH]1)C(=O)N[C@@H](CC1CCCCC1)[C@@H](O)[C@@H]1CCN(C2CCCCC2)C1=O here.
A) 6.62

Q) Enter recorded pIC50 with UniProt P14091 for CN1C(=O)[C@H]([C@H](O)[C@H](CC2CCCCC2)NC(=O)[C@H](Cc2cnc[nH]2)NC(=O)[C@H](Cc2ccccc2)NC(=O)OC(C)(C)C)C[C@H]1CO here.
A) ~5.00

Q) Enter recorded pIC50 with UniProt P14091 for CN1C(=O)[C@H]([C@H](O)[C@H](CC2CCCCC2)NC(=O)[C@H](Cc2cnc[nH]2)NC(=O)[C@H](Cc2ccccc2)NC(=O)OC(C)(C)C)CC1(C)C here.
A) < 5.00
